# SYSTEM: T1, human iRhom2, endogenously expressed (human, UniProt Q6PJF5 1-856)
# T1 sequence: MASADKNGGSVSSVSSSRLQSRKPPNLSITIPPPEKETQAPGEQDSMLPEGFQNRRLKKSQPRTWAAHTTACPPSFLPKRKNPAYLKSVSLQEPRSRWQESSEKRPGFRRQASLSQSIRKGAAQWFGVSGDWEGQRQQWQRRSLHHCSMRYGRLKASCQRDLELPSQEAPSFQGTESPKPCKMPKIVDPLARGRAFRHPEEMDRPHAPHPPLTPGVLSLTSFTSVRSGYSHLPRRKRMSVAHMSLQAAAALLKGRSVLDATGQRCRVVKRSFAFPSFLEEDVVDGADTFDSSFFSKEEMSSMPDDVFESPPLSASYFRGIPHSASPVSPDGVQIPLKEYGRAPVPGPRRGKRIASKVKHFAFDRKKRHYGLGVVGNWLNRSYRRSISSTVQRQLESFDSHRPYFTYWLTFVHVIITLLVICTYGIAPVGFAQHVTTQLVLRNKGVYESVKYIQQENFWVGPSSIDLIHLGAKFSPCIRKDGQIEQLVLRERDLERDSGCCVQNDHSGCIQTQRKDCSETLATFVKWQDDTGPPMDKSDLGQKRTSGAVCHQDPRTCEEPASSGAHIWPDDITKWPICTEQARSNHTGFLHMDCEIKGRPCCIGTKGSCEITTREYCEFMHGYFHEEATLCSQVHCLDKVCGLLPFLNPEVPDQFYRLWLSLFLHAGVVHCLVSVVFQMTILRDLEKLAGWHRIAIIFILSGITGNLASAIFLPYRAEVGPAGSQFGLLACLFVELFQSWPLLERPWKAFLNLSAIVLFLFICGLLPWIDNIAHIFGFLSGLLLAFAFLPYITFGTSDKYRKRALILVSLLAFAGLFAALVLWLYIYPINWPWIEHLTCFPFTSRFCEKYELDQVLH
# ASSAY NOTES: cell-based or functional assay
As shown below, each of these binders has a reported PMA-induced TNFα release from U-937 cells, percent inhibition, 3 µg/ml value.
Lab book: enter the figure in %, no units written.

Worked examples, 4 binders total:
antibody 34 (antibody, V domains shown, mouse IgG, kappa light chain; also called clone #34; purified antibody 34) VH: QVTLKESGPGILQPSQTLSLTCSFSGFSLSTFSLGVGWIRQSSGKGLEWLAHIWWDDEKYYNPALKSRLTISKDTSKNQVFLKIANVDAADTATYYCARAYYSKSYYALDYWGQGTSVTVSS VL: DIQMTQSPSSLSASLGERVSLTCRASQEISGYLSWLQQKPDGTIKRLIYAASTLDSGVPKRFSGSRSGSDYSLAISSLESEDFADYYCLQYANFPFTFGSGTKLEIK: 79.9
antibody 42 (antibody, V domains shown, mouse IgG, kappa light chain; also called clone #42; purified antibody 42) VH: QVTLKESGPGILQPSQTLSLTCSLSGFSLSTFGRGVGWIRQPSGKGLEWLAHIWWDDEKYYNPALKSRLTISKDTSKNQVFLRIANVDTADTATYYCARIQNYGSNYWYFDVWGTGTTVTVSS VL: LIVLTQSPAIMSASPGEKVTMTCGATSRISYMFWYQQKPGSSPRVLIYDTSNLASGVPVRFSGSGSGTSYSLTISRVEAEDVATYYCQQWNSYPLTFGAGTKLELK: 94.1
chimeric antibody 22 (antibody, V domains shown) VH: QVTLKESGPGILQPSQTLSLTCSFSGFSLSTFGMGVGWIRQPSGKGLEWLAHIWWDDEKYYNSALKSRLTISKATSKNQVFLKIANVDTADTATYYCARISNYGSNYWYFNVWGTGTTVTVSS VL: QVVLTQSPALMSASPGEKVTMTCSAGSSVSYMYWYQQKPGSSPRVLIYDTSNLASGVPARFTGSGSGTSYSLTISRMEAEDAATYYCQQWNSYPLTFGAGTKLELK: 96.5
antibody 22 (antibody, V domains shown, mouse IgG, kappa light chain; also called clone #22; purified antibody 22) VH: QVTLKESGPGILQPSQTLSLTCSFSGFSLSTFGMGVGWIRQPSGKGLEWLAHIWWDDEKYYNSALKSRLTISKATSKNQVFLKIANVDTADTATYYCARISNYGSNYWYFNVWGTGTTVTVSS VL: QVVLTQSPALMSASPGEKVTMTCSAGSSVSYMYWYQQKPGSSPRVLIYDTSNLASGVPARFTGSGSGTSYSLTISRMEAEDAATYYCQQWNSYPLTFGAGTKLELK: 93.1

Query binder follows.
Per the records, this binder ( antibody 16 (antibody, V domains shown, mouse IgG, kappa light chain; also called clone #16; purified antibody 16) VH: QVTLKESGPGILQPSQTLSLTCSFSGFSLSTFALGVGWIRQPSGRGLEWLAHIWWDDDKYYNPALKSRLTISKDTSKNHVFLKIANVDTADTATYYCARITTYYYGMDYWGQGTSVTVSS VL: DIVLSQSPATLSVTPGDSVSLFCRASQSIGNHLHWYQQESHASPRLLIKYASQSISGIPSRFSGSGSGTDFTLSINSVETEDFGMYFCQQSYNWPLTFGAGTKLELK ) has PMA-induced TNFα release from U-937 cells, percent inhibition, 3 µg/ml equal to 91.9
